test: qHTS of Nrf2 Activators: Hit Validation in Primary Assay; conditions: Nrf2/ARE reporter cell assay; activation; series mostly up to 46.1 µM; further: nearly all actives have a fitted effect of over 70% in size
About 860 (78%) of roughly 1,100 compounds were called active. Inconclusive results (about 19%) are left out. The call rests on the fitted dose curve; in most records, active means well fitted activation curve with a large enough effect; inconclusive means small, poorly fitted or top-dose-only effect; inactive means flat fitted curve, though single readings scatter. The set was probably picked from earlier hits. The list shows a part of the results.
The categories you may choose from are active, inactive

In this assay, the call recorded for "Cc1ccc([N+](=O)[O-])c(OCc2ncc(Cl)n2C)c1" was what?
active

Let us now turn to "Nc1nonc1N/N=C/c1c(O)ccc2ccccc12"
active

Same again, this time with Cc1ccc(S(=O)(=O)c2nc(S(C)(=O)=O)sc2N2CCCCC2C)cc1 (stereo not given)
active

Input "O=C(Nc1nnc(-c2cccs2)s1)c1cccc(F)c1"
active

Next: "CCc1nc(N)c(C#N)c(-c2ccco2)c1C"
active

Entry CCCCC1C(=O)N(c2ccccc2)N(c2ccc(O)cc2)C1=O (stereo not given) please
inactive

Now try "Cc1ccccc1NC(=O)/C(C#N)=C/c1ccsc1" .
active

Param item: "Cc1cc(-c2sccc2Br)nc(-n2cccc2)n1"
active

Could you do the same for "O=C(NC(=S)Nc1cc(C(F)(F)F)ccc1Cl)c1ccccc1" , please?
active

Can you check "O=c1c2ccccc2oc2cc(Br)ccc12" next?
active

What about CC1(O)c2ccccc2C(=O)N1CCc1ccccc1F (stereo not given) ?
active

What about this compound? "Cc1ccccc1NC(=O)/C(C#N)=C\c1ccsc1"
active

// query: "C#CCSc1nc(-c2cccs2)ccc1C#N"
active

Would you mind doing "O=S(=O)(c1ccc(F)cc1)c1snnc1-c1ccccc1" as well?
active

Quick one: "CCCN(C(=O)c1ccco1)c1nnc(-c2ccccc2C)s1"
active

What about this compound? C[C@H]1CCC[C@]2(C)C[C@H]3OC(=O)C(CN4CCCCCC4)[C@H]3C=C12 (stereo not given in full)
active

Same question for "O=C(COC(=O)/C=C/c1ccco1)Nc1ccc(F)cc1Cl" please.
active

Now consider "CCOC(=O)c1ccc(NC(=O)c2nc(S(=O)(=O)Cc3ccccc3)ncc2Cl)cc1" .
active

Field entry: "O=C(/C=C/c1ccc2c(c1)OCO2)c1ccc(O)cc1O"
active

Then what about the compound CSc1nc2sc3c(c2c(=O)n1C)CCC(C)C3 (stereo not given) ?
active

Note, next up: "CCOC(=O)c1cnc(-c2ccccc2)nc1-c1ccccc1"
active

What do you get for "COc1cc(/C=N/Nc2ccccn2)cc(OC)c1O" ?
active

Follow-up entry: "CC(C)Cc1cc(-c2ccco2)c(C#N)c(N)n1"
active

Can you handle "c1ccc(-c2nnc(-c3ccccc3)o2)cc1" next?
active

And "COC(=O)c1cc2c(s1)-c1cc(F)ccc1OC2" ?
active

Field entry: "N#Cc1c(-c2ccco2)cc(-c2ccccn2)nc1N"
active

Proceed to "NC(=O)N/N=C/c1ccccc1OC(=O)c1ccccc1Br"
active

Try the compound "CC(=O)c1ccccc1NC(=O)COC(=O)/C=C/c1ccc(C)o1"
active

Follow-up entry: "Cc1cc(N/N=C/c2c(O)ccc3ccccc23)nc(-c2ccccc2O)n1"
inactive

Cool, now "O=C(COc1cccnc1[N+](=O)[O-])Nc1cccc2ccccc12"
active

---

assay: qHTS of Nrf2 Activators: Hit Validation in Primary Assay; settings: Nrf2/ARE reporter cell assay; activation; series mostly up to 46.1 µM; further: nearly all actives have a fitted effect of over 70% in size
The whole screen tested about 1,100 compounds, of which about 860 (78%) were called active. Roughly 19% stayed inconclusive and do not appear here. The call rests on the fitted dose curve; in most records, active means well fitted activation curve with a large enough effect; inconclusive means small, poorly fitted or top-dose-only effect; inactive means flat fitted curve, though single readings scatter. The set was probably picked from earlier hits. Some of the results follow.
Tick one outcome: t (active), f (inactive)

Hi team, can someone confirm the assay call for "CCOc1cc(/C=C/c2ccc3cccc([N+](=O)[O-])c3n2)cc(Cl)c1O" ?
t

Try the molecule "[O-][n+]1onc2c3ccnnc3ccc21"
t

Could you do the same for "C=CCSc1nccc(-c2cc(Cl)sc2Cl)n1" , please?
t

Let us now turn to "CCN(CC)c1ccc2c(c1)oc(=O)c1c(Cl)cc(=O)oc12"
f

Check "C=CCn1c(SCC(C)=O)nc2scc(-c3ccco3)c2c1=O" too.
t

---

assay: qHTS of Nrf2 Activators: Hit Validation in Primary Assay; settings: Nrf2/ARE reporter cell assay; activation; series mostly up to 46.1 µM; further: nearly all actives have a fitted effect of over 70% in size
Screen size: about 1,100 compounds; about 860 (78%) were called active. Not shown: some 19% with an inconclusive outcome. Calls come from the whole dose curve; as a rule, active = well fitted activation curve with a large enough effect; inconclusive = small, poorly fitted or top-dose-only effect; inactive = flat fitted curve, though single readings scatter. So high a share suggests a set chosen from earlier hits. The list shows a part of the results.
Please answer using one outcome listed in true (1) = active, false (0) = inactive

Recorded call for "O=C(N/N=C/c1ccsc1)c1ccc2ccccc2n1" ?
true (1)

Then this compound: "O=C(CN1CCS(=O)(=O)CC1)N/N=C/c1cccc(C(F)(F)F)c1"
true (1)

Query "O=C(Nc1nc2ccccc2[nH]1)c1cccc([N+](=O)[O-])c1" next
true (1)

Input "CCOc1ccccc1NS(=O)(=O)c1c(C(=O)OC)sc2cccc(F)c12"
true (1)

Next entry: "O=C(CSc1nccc(-c2cccs2)n1)Nc1cccc(Cl)c1"
true (1)

# iterate: "Cc1ccc2cc3c(NC(=O)c4ccco4)nn(C)c3nc2c1"
true (1)

Then "O=C(/C=C/c1ccco1)Nc1ccc(-c2nc3ccccc3[nH]2)cc1" ?
true (1)

Please answer likewise for "COc1ccccc1C(=O)NCc1nc2cccnc2n1Cc1ccc(F)cc1"
true (1)

What would you report for "O=C(Nc1cccnc1)C1(F)C(F)(F)C(F)(F)C(F)(F)C(F)(F)C1(F)F" ?
true (1)

Next: "O=C1c2ccccc2C(=O)c2c(Nc3ccc(CCO)cc3)ccc(O)c21"
true (1)

Proceed to "COc1ccc(Cl)cc1NC(=O)c1cc(-c2ccccc2O)n[nH]1"
true (1)

And the next one, "O=C(Nc1cc(Br)ccc1O)c1cnn2c(C(F)F)cc(C3CC3)nc12" ?
true (1)

Query "CCCCn1c(O)c(N=Nc2ccccn2)c2ccccc21" next
true (1)

Another compound to check: O=C1CC(C(=O)Nc2ccc(Cl)c(Cl)c2)S/C(=N\N=C\c2ccco2)N1 (stereo not drawn)
true (1)

Repeat for the following compound: "COc1c(Cl)cc(C(=O)NCc2ccco2)cc1Cl"
true (1)

Same again, this time with "O=C(CSc1nnc(-c2cccnc2)o1)c1cc2ccccc2oc1=O"
true (1)

What would you report for "Cc1ccc(Cc2c(-c3ccco3)nc3c4ccccc4ccn23)cc1" ?
true (1)

Now the same for Cc1cccc(NC(=O)C2CC(=O)N/C(=N/N=C/c3ccco3)S2)c1 (stereo not drawn)
true (1)

Another: "N#C/C(=C\C=C\c1ccccc1)C(=O)NCc1cccnc1"
true (1)

Same read-out for "CCn1c(=NC(=O)c2ccco2)sc2cccc(F)c21" ?
true (1)

One more compound: "CC(C)CCn1c(O)c(N=Nc2ccccn2)c2ccccc21"
true (1)

Moving on to the next compound: "CC(C)c1ccc(NC(=O)c2sccc2-n2cccc2)cc1"
true (1)

// same read-out, input: "COc1ccc(Cl)cc1NC(=O)c1cc(C)no1"
true (1)

Same read-out for CC1Sc2n(c3ccccc3[n+]2C)N=C1c1ccccc1 (stereo not drawn) ?
true (1)

Please give the result for "Cn1c(SCC(=O)N/N=C/C=C\c2ccccc2[N+](=O)[O-])nc2ccccc21" too.
true (1)

Entry to check: "CS(=O)(=O)c1nc(S(=O)(=O)c2ccc(Cl)cc2)c(N2CCOCC2)s1"
true (1)

Then "COc1ccccc1NC(=O)c1ccc(Cl)c(S(=O)(=O)NCc2ccco2)c1" ?
true (1)

Moving on to the next compound: "COC(=O)c1sccc1NC(=O)c1cccc(OC)c1"
true (1)

Continue with "c1ccc(N=NC2=NN(c3ccccc3)CS2)cc1"
true (1)

Ok, now "CC(=O)Nc1ccc(O)c(-c2nc3ccccc3s2)c1"
true (1)

Do the same for "O=C(CNC(=S)NC(=O)c1ccccc1Br)c1ccccc1" please
false (0)

Similarly, "O=C(Nc1nc2ccccc2[nH]1)c1ccc(Cl)c([N+](=O)[O-])c1" ?
true (1)

"Cc1c(C(=O)NCc2ccco2)oc2c(Cl)cccc12" ?
true (1)

Now the compound "Fc1cccc(Cc2c(-c3ccco3)nc3c4ccccc4ccn23)c1"
true (1)

Follow-up entry: "Fc1ccccc1-c1nc(-c2ccc(Cl)cc2)no1"
true (1)

Another compound: "C=C(C)CNC(=S)N/N=C(\C)c1ccc(Cl)s1"
true (1)

Further, for "O=C(NC(=S)Nc1ccccc1O)c1ccccc1Cl" ?
true (1)

Okay, and "N#CC(=C1C=CC(=NO)C(Cl)=C1)c1ccccc1" ?
true (1)

Another compound to look at: "Cc1nn2c(-c3ccccc3)nnc2c2ccccc12"
true (1)

What about "COC(=O)c1sccc1NC(=O)c1cccc(F)c1" ?
true (1)

Thanks! And "CC(C)(C)c1csc(NC(=O)CCS(=O)(=O)c2ccc(F)cc2)n1" ?
true (1)

Follow-up item: "COC(=O)c1ccc2nc(-c3cccc(Cl)c3)c(Cc3ccccc3OC)n2c1"
true (1)

Try this compound too: "Cc1ccc(CNC(=O)c2sccc2-n2cccc2)cc1"
true (1)
